# experiment: NCI Yeast Anticancer Drug Screen. Data for the CLN2oe strain (AID 163);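 further: 0% = growth of vehicle-only control cultures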
# test conditions: S. cerevisiae CLN2oe strain, at 11.0 µM, hits give high values
Compounds without any hit were thinned out: in the full panel of roughly 79,000, 15% have a hit.
measured property: growth inhibition (%)
Give bare numbers, in %.

Consider the worked cases shown below.
> print(dat)
                                   compound  experimental.value
1  O=C(Cc1ccccc1)NNc1nc(NNC(=O)c2ccncc2)nc(Nc2ccc([N+](=O)[O-])cc2)n1                   8
2  CC1CCN(CCC(=O)c2ccc([N+](=O)[O-])cc2)CC1                  15
3      O=C1C=CC(=Nc2cccc3c2-c2ccccc2C3=O)O1                  60

Dear reader, for each entry below, please note its growth inhibition.
1. COC1/C=C\C=C(/C)C(=O)NC2=CC(=O)C(=O)C(=C2O)CC(C)CC(OC)C(O)C(C)/C=C(\C)C1OC(N)=O (stereo not given)
2. CC(C)Cc1ncc(CCCN=C(N)N)[nH]c1=O
3. Cc1oc2ccccc2c(=O)c1Cn1nnc2ccccc21
4. CCC(=O)C1=C(O)c2cc(OC)ccc2CC1C(=O)OC (stereo not given)
5. CCN(CC)CCCNc1ccc([N+](=O)[O-])c2nc3ccc(OC)cc3c(NCCCN(CC)CC)c12

Given back:
1. 94
2. -13
3. -4
4. 2
5. -4

The following compounds each have a reported value; give each one's growth inhibition.
1. CCOC(=O)C(Cc1c2ccccc2cc2ccccc12)(NC(C)=O)C(=O)OCC
2. Nc1cccc(-c2cc[cH-]c2)c1.[Fe+2].c1cc[cH-]c1

Given back:
1. -6
2. -6
